The measurements presented in this section are drawn from patent US20240279207A1.

# Tested on: LCLC97TM1
# RUN_DESCRIPTION: LCLC97TM1 proliferation assay
# Type: cell-based
# DETAILS: LCLC97TM1; read-out: LCLC97TM1 proliferation assay; EC50 [M] (arithmetic mean)
MEASURE_NAME: EC50 (M)
Quick reminder: number only, in M, skip the unit.

CC(Oc1ccccc1S(=O)(=O)NC(=O)c1cc2c(F)cc(N3CCC3)cc2o1)C(F)(F)F (single isomer, unassigned) [Example 14] ... 1.39e-06
CCOc1ccccc1S(=O)(=O)NC(=O)c1cc2c(F)cc(N3CCC3)cc2o1 [Example 2] ... 3.38e-07
CC(Oc1ccccc1S(=O)(=O)NC(=O)c1cc2c(F)cc(N3CCC3)cc2o1)C(F)(F)F (single isomer, unassigned) [Example 15] ... 6.28e-07

We now examine a further molecule.
Query: Specify EC50 for CCOc1ccccc1S(=O)(=O)NC(=O)c1cc2c(F)cc(N3CCC3)cc2o1 [Example 126] and stop.
Response: 1.12e-06
